experimental target: Short transient receptor potential channel 4 (Mus musculus) (UniProt Q9QUQ5)
method description: calcium flux activators in TRPC4/5HT1a cells, counter-screen for TRPC4 activator project, cell-based, second counter screen, HEK293 TRPC4/5HT1a, Fluo-4 (AID 434977)
assay context: Fluo-4 calcium flux, at 10 µM
Activity calls are given as the source filed them.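 The calls were made as follows: active = calcium signal rise above buffer-control mean plus 5 SD in both duplicates, and also a hit in the primary screen; inactive = the rest.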
The categories you may choose from are TRUE (active), FALSE (inactive)

Please review the entries below; each comes with its answer.
Cc1cccc(C(=O)NC(=S)NNC(=O)Cc2ccccc2)c1; TRUE
O=C(CN1CCN(Cc2ccccc2Cl)CC1)N=Nc1c(O)[nH]c2ccccc12; FALSE
Cn1c(=O)n(CCCO)c(=O)c2c1nc1n2CCCN1Cc1ccccc1; FALSE
Cc1ccc(/C=N/NC(=O)CSc2nc3ccccc3n2Cc2ccccc2)o1; FALSE
CC(=O)OCC1O[C@@H](O[C@@H]2C[C@H]3C(C)(C)[C@H](OC(C)=O)CC[C@]3(C)[C@H]3CC[C@]45C[C@]4(CC[C@H]5[C@@H](C)C[C@@H](O)[C@H](O)C(C)(C)O)[C@@]32C)[C@H](O)[C@@H](O)[C@@H]1O (stereo partly specified); FALSE

Then there is this molecule:
[in] // return assay outcome for CCOc1ccc2nc(NCCNC(=O)C3CC3)c(C)cc2c1
[out] FALSE
